Origin of measurements: patent US20220195015A1

// values below are reported EC50
molecular target: SARS-CoV-2 spike protein receptor binding domain (RBD) (SARS-CoV-2, UniProt P0DTC2 319-539); assay: ELISA on coated RBD protein
Could you give me the number in µg/mL? Just the number is fine.

>  <BINDER>
C083 (antibody, V domains shown) VH: EVQLVESGGGLVKPGGSLRLSCAASGFTFSSYSMNWVRQAPGKGLEWVSSISSSTSYIYYADSVKGRFTISRDNAKNSLYLQMNSLRAEDTAVYYCARERYGDNWGQGTLVTVSS VL: QLVLTQSPSASASLGASVKLTCTLSSGHSSYAIAWHQQQPEKGPRYLMSLNSDGSHSKGDGIPDRFSGSSSGAERYLTISSLQSEDEADYYCQTWGPWVFGGGTKLTVL

>  <MEASURED_NUMBER>
0.0251

$$$$

Input C052 (antibody, V domains shown) VH: EVQLVESGGGLIRPGGSLRLSCAASGFSVSNNYMSWVRQAPGKGLEWVSVIYSGGTTYYADSVKGRFNISRDNSKNTVYLQMNSLRAEDTAVYYCAREGDVEGYYDFWSGYSRDRYYFDYWGQGALVTVSS VL: QSALTQPASVSGSPGQSITISCTGTSSDVGGYNYVSWYQQHPGKAPKLMIYDVSNRPSGVSNRFSGSKSGNTASLTISGLQAEDEADYYCNSYTSNNTRVFGTGTKVTVL . Output EC50: 0.00123

For C064 (antibody, V domains shown) VH: EVQLLESGGDLVQPGGSLRLSCAASGFTFSNYAMSWVRQAPGKGLEWVSAISGSGGNTYYADSVKGRFTISRDNSKNTLYLQMNSLRAEDTAVYYCAKAVHYGGNSDRRFSEPSAPFDYWGQGTLVTVSS VL: QSALTQPASVSGSPGQSITISCTGTSSDVGSYNLVSWYQQHPGKAPKLMIYEGSKRPSGVSNRFSGSKSGNTASLTISGLQAEDEADYYCCSYAGSSTPYVFGTGTKVTVL the binder record lists EC50 as 0.363
